Molecular target: S. cerevisiae PDC (Saccharomyces cerevisiae)
Construct: purchased Sigma
Sequence (P06169 2-563 limits assumed): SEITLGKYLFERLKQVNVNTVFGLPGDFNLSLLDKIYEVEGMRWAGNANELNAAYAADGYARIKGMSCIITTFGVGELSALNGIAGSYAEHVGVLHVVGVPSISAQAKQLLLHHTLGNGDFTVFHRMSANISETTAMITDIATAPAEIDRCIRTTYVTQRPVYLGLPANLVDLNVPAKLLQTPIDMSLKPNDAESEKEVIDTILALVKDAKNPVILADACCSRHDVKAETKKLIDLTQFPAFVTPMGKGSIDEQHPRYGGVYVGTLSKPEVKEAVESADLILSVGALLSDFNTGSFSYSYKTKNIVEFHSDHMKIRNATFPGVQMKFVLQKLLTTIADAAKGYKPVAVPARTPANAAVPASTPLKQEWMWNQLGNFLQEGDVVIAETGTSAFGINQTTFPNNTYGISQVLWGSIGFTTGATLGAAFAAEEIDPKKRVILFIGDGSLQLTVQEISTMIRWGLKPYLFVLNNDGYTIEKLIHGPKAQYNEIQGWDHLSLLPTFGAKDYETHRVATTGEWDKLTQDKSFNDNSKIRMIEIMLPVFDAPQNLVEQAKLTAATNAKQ
Experiment: S. cerevisiae PDC inhibitory activity assay (DCPIP reduction)
Assay type: biochemical
Conditions: read-out: IC50 (μM ± SEM); [TPP] = 150 µM

| molecule | u | IC50 |
| --- | --- | --- |
| Cc1ncc(Cn2cc(CCCC(C(=O)[O-])C(=O)[O-])nn2)c(N)n1.[K+].[K+] [14b] | µM | 211 |
| Cc1ncc(Cn2cc(CCCCC(=O)[O-])nn2)c(N)n1.[K+] [16b] | µM | 503 |
| Cc1ncc(Cn2cc(CCC(C(=O)[O-])C(=O)[O-])nn2)c(N)n1.[K+].[K+] [14a] | µM | 319 |
| Cc1ncc(Cn2cc(CCCC(=O)[O-])nn2)c(N)n1.[K+] [16a] | µM | 582 |

---

Target: S. cerevisiae PDC (Saccharomyces cerevisiae, UniProt P06169)
Construct: purchased Sigma
Sequence (P06169 2-563 limits assumed): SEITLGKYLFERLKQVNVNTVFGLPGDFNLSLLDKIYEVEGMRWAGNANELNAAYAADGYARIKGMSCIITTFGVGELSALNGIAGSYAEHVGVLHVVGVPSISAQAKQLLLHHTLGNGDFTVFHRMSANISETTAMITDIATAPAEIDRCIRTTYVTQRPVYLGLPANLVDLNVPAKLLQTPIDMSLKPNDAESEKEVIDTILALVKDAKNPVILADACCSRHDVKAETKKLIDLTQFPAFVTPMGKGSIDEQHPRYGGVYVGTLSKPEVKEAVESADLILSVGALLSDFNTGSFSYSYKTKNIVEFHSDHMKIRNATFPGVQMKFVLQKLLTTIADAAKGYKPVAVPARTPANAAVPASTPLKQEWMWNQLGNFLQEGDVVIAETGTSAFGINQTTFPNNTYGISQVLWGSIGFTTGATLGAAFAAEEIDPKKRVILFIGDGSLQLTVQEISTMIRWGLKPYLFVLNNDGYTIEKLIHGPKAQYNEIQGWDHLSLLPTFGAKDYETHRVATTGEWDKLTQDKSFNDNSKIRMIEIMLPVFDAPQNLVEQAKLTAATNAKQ
Assay: S. cerevisiae PDC inhibitory activity assay (DCPIP reduction)
Format: biochemical
Details: [Compound] = [TPP] = 750 μM; read-out: % Inhibition (1:1)
Description: S. cerevisiae PDC was purchased from Sigma. S. cerevisiae PDC activity was determined by monitoring DCPIP reduction at 600 nm using a microplate reader (CLARIOstar) and conducted as described[5] with some modifications. […] Specific activity was calculated using the molar extinction coefficient of DCPIP, 21 mM^–1 cm^–1.[28] The IC50 values were calculated from nonlinear regression curve fitting using GraphPad Prism. […] calculated from non-linear regression curve fitting using GraphPad Prism. […]
measurementType: inhibition at 750 µM (%)

| compound | qualifier | readoutNumber |
| --- | --- | --- |
| COC(=O)C(CCCc1cn(Cc2cnc(C)nc2N)nn1)C(=O)OC [13b] | = | 21 |
| Cc1ncc(Cn2cc(CCCC(=O)[O-])nn2)c(N)n1.[K+] [16a] | = | 24 |
| COC(=O)CCCCc1cn(Cc2cnc(C)nc2N)nn1 [15b] | < | 20 |
| COC(=O)CCCc1cn(Cc2cnc(C)nc2N)nn1 [15a] | < | 20 |
| Cc1ncc(Cn2cc(CCCCC(=O)[O-])nn2)c(N)n1.[K+] [16b] | = | 25 |
| COC(=O)C(CCc1cn(Cc2cnc(C)nc2N)nn1)C(=O)OC [13a] | < | 20 |
| Cc1ncc(Cn2cc(CCC(C(=O)[O-])C(=O)[O-])nn2)c(N)n1.[K+].[K+] [14a] | = | 31 |
| Cc1ncc(Cn2cc(CCCC(C(=O)[O-])C(=O)[O-])nn2)c(N)n1.[K+].[K+] [14b] | = | 42 |
